Form field: pIC50 (one value per entry).
Target: His-tagged recombinant human Gal-3 (hGal-3) (Homo sapiens, UniProt P17931)
Sequence (P17931 whole entry): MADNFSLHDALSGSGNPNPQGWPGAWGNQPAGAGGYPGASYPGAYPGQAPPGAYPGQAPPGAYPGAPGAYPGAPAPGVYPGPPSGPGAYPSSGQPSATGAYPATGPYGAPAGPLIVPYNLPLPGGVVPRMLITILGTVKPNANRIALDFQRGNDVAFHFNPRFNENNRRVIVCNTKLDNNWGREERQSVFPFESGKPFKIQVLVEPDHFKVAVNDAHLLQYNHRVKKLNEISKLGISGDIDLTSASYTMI
Assay: Gal-3 HTRF assay (hGal-3 / B-ASF binding inhibition)
Details: table of Examples 30 to 65
Method: ASSAY BUFFER Composition: 25 mM HEPES, 100 mM NaCl, 0.005% Tween 20, 0.05% BSA prepared in sterile water (all reagents from Sigma). […] PROTOCOL: The Gal-3 assays were performed in 384 white Opti plates in three replicates at room temperature with gentle shaking at 250-300 rpm From the original stocks, […] working stock concentrations of His-tagged recombinant human Gal-3 (hGal-3) and that of B-ASF were prepared. […] Data analysed using Toolset and Curve Master. […]
Note on units: pIC50 is unitless, being -log10 of a concentration expressed in mol/L.

Please review the entries below; each comes with its answer.
IN: Which pIC50 is listed for OC[C@H]1O[C@@H](c2nncn2-c2cc(Cl)ccc2C(F)(F)F)[C@H](OCC(F)(F)F)[C@@H](n2cc(-c3ccc(Cl)c(F)c3F)nn2)[C@H]1O ?
OUT: 7.85

IN: Which pIC50 is listed for OC[C@H]1O[C@@H](c2nncn2-c2cc(Cl)ccc2OC(F)(F)F)[C@H](OCC(F)F)[C@@H](n2cc(-c3ccc(Br)c(F)c3F)nn2)[C@H]1O ?
OUT: 7.68

IN: Which pIC50 is listed for OC[C@H]1O[C@@H](c2nncn2-c2cc(Cl)ccc2OC(F)(F)F)[C@H](O)[C@@H](n2cc(-c3ccc(Br)c(F)c3F)nn2)[C@H]1O ?
OUT: 7.96

IN: Which pIC50 is listed for OC[C@H]1O[C@@H](c2nncn2-c2cc(Cl)ccc2C(F)(F)F)[C@H](OCC(F)F)[C@@H](n2cc(-c3ccc(Cl)c(F)c3F)nn2)[C@H]1O ?
OUT: 7.92

IN: Which pIC50 is listed for OC[C@H]1O[C@@H](c2nncn2-c2cc(Cl)ccc2C(F)(F)F)[C@H](O)[C@@H](n2cc(-c3c(F)c(F)c(Br)c(F)c3F)nn2)[C@H]1O ?
OUT: 8.24

New cases:
IN: Which pIC50 is listed for OC[C@H]1O[C@@H](c2nncn2-c2cc(Cl)ccc2C(F)(F)F)[C@H](OCC(F)(F)C(F)F)[C@@H](n2cc(-c3ccc(Br)c(F)c3F)nn2)[C@H]1O ?
OUT: 7.74

IN: Which pIC50 is listed for OC[C@H]1O[C@@H](c2nncn2-c2cc(Cl)ccc2C(F)(F)F)[C@H](OCC(F)F)[C@@H](n2cc(-c3ccc(Br)c(F)c3)nn2)[C@H]1O ?
OUT: 7.40

IN: Which pIC50 is listed for CO[C@@H]1[C@@H](n2cc(-c3ccc(Br)c(F)c3F)nn2)[C@@H](O)[C@@H](CO)O[C@H]1c1nncn1-c1cc(Cl)ccc1C(F)(F)F ?
OUT: 8.03

IN: Which pIC50 is listed for CO[C@@H]1[C@@H](n2cc(-c3ccc(Br)c(F)c3F)nn2)[C@@H](O)[C@@H](CO)O[C@H]1c1nncn1-c1cc(Cl)ccc1OC(F)(F)F ?
OUT: 7.85

IN: Which pIC50 is listed for OC[C@H]1O[C@@H](c2nncn2-c2cc(Cl)ccc2OC(F)(F)F)[C@H](O)[C@@H](n2cc(-c3c(F)c(F)c(Br)c(F)c3F)nn2)[C@H]1O ?
OUT: 7.85
